- ASSAY_REMARKS: viability gain of MRP-1-high H69AR cells under doxorubicin, pilot screen, MRP-1 activator project, CellTiter-Glo, duplicate (AID 807);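 further: compound pretreatment 18-22 h then 72 h combined with doxorubicin; 0% = doxorubicin alone and 100% = vehicle without doxorubicin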
- PARTICULARS: H69AR viability with doxorubicin, CellTiter-Glo luminescence; at 10 µM; stronger effect = higher value
Exercise: for every item that follows, state its recorded viability increase.
Numeric answer only, unit % assumed.

Enquiry: Give viability increase for the following molecule: CCn1c(CNC(=O)c2ccc(OC)cc2)nnc1SC
Return: -1.74

Enquiry: Give viability increase for the following molecule: O=C(O)c1c(F)c(F)c(F)c(F)c1-c1ccc(Cl)cc1
Return: -1.76

Enquiry: Give viability increase for the following molecule: CCCCOC(=O)CCc1n[nH]c(=O)[nH]c1=O
Return: -1.14

Enquiry: Give viability increase for the following molecule: Cc1cccc(-n2ncc3c(N(C)C4CCCCC4)ncnc32)c1
Return: 2.07

Enquiry: Give viability increase for the following molecule: COc1cc(C2C(C(=O)OC(C)C)=C(C)Nc3ncnn32)cc(OC)c1OC (centres undefined)
Return: -3.15

Enquiry: Give viability increase for the following molecule: O=C(CCCn1c(=O)[nH]c2ccccc2c1=O)N1CCN(c2ccccn2)CC1
Return: -3.43

Enquiry: Give viability increase for the following molecule: Cn1c(=O)oc2cc(S(=O)(=O)N3CCCC(C(=O)NCCN4CCOCC4)C3)ccc21 (centres undefined)
Return: -0.15

Enquiry: Give viability increase for the following molecule: O=C(CCCOc1ccccc1)Nc1ccc2c(c1)OCCO2
Return: -4.17

Enquiry: Give viability increase for the following molecule: O=C(O)C1C2C=CC(C2)C1C(=O)NCc1ccc2c(c1)OCO2 (centres undefined)
Return: -1.9

Enquiry: Give viability increase for the following molecule: COc1cc(C)c(N(C(C)=O)c2ccccc2)c(C)c1
Return: -0.85

Enquiry: Give viability increase for the following molecule: COc1cccc(OC)c1C(=O)Nc1nnc(C(C)C)s1
Return: -1.98

Enquiry: Give viability increase for the following molecule: CSc1nc2ccc(NS(=O)(=O)c3ccc4c(c3)OCCO4)cc2s1
Return: 0.31

Enquiry: Give viability increase for the following molecule: CCOC(=O)N1CCN(C(=O)Cn2c(=O)sc3ccccc32)CC1
Return: -0.84

Enquiry: Give viability increase for the following molecule: Oc1c(/C=N/c2ncn[nH]2)ccc2ccccc12
Return: -0.29

---

- ASSAY_REMARKS: OD615 S. cerevisiae growth inhibition, permissive medium, pilot counter-assay, permissive growth control for S. cerevisiae lifespan shortening project (AID 705)
- PARTICULARS: OD615, 24 h, at 10 µM, stronger effect = higher value
QUANTITY: growth inhibition (%)
Numeric answer only, unit % assumed.

Enquiry: Give growth inhibition for the following compound: Cc1cc(C)cc(NC(=O)CSc2nc3c(c(=O)n2C)SC(C)C3)c1 (stereo not given)
Return: -2.6

Enquiry: Give growth inhibition for the following compound: O=C(Nc1nnc(-c2ccc(F)cc2)o1)c1ccco1
Return: -6.49

Enquiry: Give growth inhibition for the following compound: COc1ccc(-c2c(C)oc3cc(O)cc(O)c3c2=O)cc1OC
Return: -12.4

Enquiry: Give growth inhibition for the following compound: CC(=O)Nc1ccc(S(=O)(=O)N2CCN(c3nc(NC4CCCC4)c4ccccc4n3)CC2)cc1
Return: 0.72

Enquiry: Give growth inhibition for the following compound: CCOC(=O)C1CCN(CC(O)COc2ccc(C(C)=O)cc2)CC1 (stereo not given)
Return: -1.86

Enquiry: Give growth inhibition for the following compound: O=C(c1ccc(CS(=O)(=O)c2ccccc2)o1)N1CCN(c2ncccn2)CC1
Return: 2.63

Enquiry: Give growth inhibition for the following compound: Cc1ccc(Cn2c(Sc3nnc(C)s3)nc3c2c(=O)[nH]c(=O)n3C)cc1
Return: -1.77

Enquiry: Give growth inhibition for the following compound: O=C(CC1NCCNC1=O)OCCCc1ccccc1 (stereo not given)
Return: -0.955

Enquiry: Give growth inhibition for the following compound: O=C(CC1Sc2ncnn2C1=O)Nc1ccc(Br)cc1 (stereo not given)
Return: -5.64

Enquiry: Give growth inhibition for the following compound: CCOC(=O)CSc1nnc(Cn2c(=O)sc3ccccc32)n1-c1ccccc1C
Return: -8.34

Enquiry: Give growth inhibition for the following compound: CCOC(=O)N1CCC(N2Cc3cccc(C(=O)NCc4ccccn4)c3C2=O)CC1
Return: -4.83

Enquiry: Give growth inhibition for the following compound: CC(=O)c1ccc(OCC(O)CN2CCN(c3ccccn3)CC2)cc1 (stereo not given)
Return: 2.13

Enquiry: Give growth inhibition for the following compound: CSC1=NCCN1C(=O)COc1ccc2ccccc2c1
Return: -2.13

Enquiry: Give growth inhibition for the following compound: O=C(OCCNc1ncc(C(F)(F)F)cc1Cl)c1ccc(S(=O)(=O)N2CCOCC2)cc1
Return: -5

Enquiry: Give growth inhibition for the following compound: O=C(c1ccc(Cn2c(=O)[nH]c3ccccc3c2=O)cc1)N1CCN(c2ccccn2)CC1
Return: -11.8

---

- ASSAY_REMARKS: viability gain of MRP-1-high H69AR cells under doxorubicin, pilot screen, MRP-1 activator project, CellTiter-Glo, duplicate (AID 807);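 further: compound pretreatment 18-22 h then 72 h combined with doxorubicin; 0% = doxorubicin alone and 100% = vehicle without doxorubicin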
- PARTICULARS: H69AR viability with doxorubicin, CellTiter-Glo luminescence; at 10 µM; stronger effect = higher value
Exercise: for every item that follows, state its recorded viability increase.
Numeric answer only, unit % assumed.

Enquiry: Give viability increase for the following compound: CCSc1nc2c(c(=O)[nH]1)C(C(C)C)C(C#N)=C(N)O2 (stereo not given)
Return: -2.8

Enquiry: Give viability increase for the following compound: O=C(Nc1c(C(=O)N2CCCCC2)cnn1-c1ccccc1)c1ccco1
Return: -0.92

Enquiry: Give viability increase for the following compound: CSc1nnc(Cn2c(=O)sc3ccccc32)n1-c1ccccc1
Return: -0.84

Enquiry: Give viability increase for the following compound: Cc1[nH]n(-c2ccccc2)c(=O)c1S(=O)(=O)c1ccccc1
Return: 0.62

Enquiry: Give viability increase for the following compound: Cc1[nH]c(C)c2c(=O)n(-c3ccccc3)ncc12
Return: 0.12

---

- ASSAY_REMARKS: growth suppression of PTEN-deleted HCT116, pilot screen, cell-based, HCT116 clonal line, CellTiter-Glo (AID 824);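 further: 0% = 20 µM Hyamine control and 100% = vehicle cell control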
- PARTICULARS: 60 h, at 10 µM, stronger effect = lower value
Records with an inconclusive call do not appear.
QUANTITY: viability (%)
Numeric answer only, unit % assumed.

Enquiry: Give viability for the following compound: Cc1c(C(=O)NCC2CCCO2)oc2ccc(S(=O)(=O)N3CCCCC3)cc12 (stereo unspecified)
Return: 92.1

Enquiry: Give viability for the following compound: CCOC(=O)N1CCN(C(=O)CSc2nc3c(cnn3-c3ccc(C)cc3)c(=O)[nH]2)CC1
Return: 94.1

Enquiry: Give viability for the following compound: CS(=O)(=O)c1ccc2nc(NC(=O)c3ccco3)sc2c1
Return: 81.9

Enquiry: Give viability for the following compound: COc1cccc(NC(=O)c2cccnc2)c1
Return: 87.2

Enquiry: Give viability for the following compound: Cc1ccc(C2CC(c3cccc(Br)c3)n3nc(N)nc3N2)cc1 (stereo unspecified)
Return: 67.2

Enquiry: Give viability for the following compound: Cn1cccc1Cc1nnc(SCC(=O)N2CCCC2)n1CCc1ccccc1
Return: 102

Enquiry: Give viability for the following compound: Cn1c(=NC(=O)C2CC2)sc2cccc(F)c21
Return: 89

Enquiry: Give viability for the following compound: CCOC(=O)CC1=C(C#N)C(c2cccnc2)C(C(=O)OCC)=C(N)O1 (stereo unspecified)
Return: 99.6

Enquiry: Give viability for the following compound: Cc1ccccc1N(CC(=O)NCCSCc1ccco1)S(C)(=O)=O
Return: 95.5

Enquiry: Give viability for the following compound: O=C(O)CCSc1nnc(-c2ccccc2)n1-c1ccccc1
Return: 98.3

Enquiry: Give viability for the following compound: COc1ccc(C(=O)Nc2ccc(Cl)cc2C(=O)NCc2ccco2)cc1OC
Return: 68.9

Enquiry: Give viability for the following compound: O=C(CCCOc1ccccc1)Nc1cccc(C(=O)O)c1
Return: 98.6

Enquiry: Give viability for the following compound: Cc1nn(-c2ccccc2)c2c1C(c1ccncc1)C(C#N)=C(N)O2 (stereo unspecified)
Return: 89.6

Enquiry: Give viability for the following compound: CC1(C)CC(=O)C=C(NCCN2CCN(C(=O)Nc3ccc(Cl)cc3)CC2)C1
Return: 101

Enquiry: Give viability for the following compound: CCCC1(C(=O)O)NC(c2ccc(OC)cc2O)C2C(=O)N(c3ccc(OC)cc3)C(=O)C21 (stereo unspecified)
Return: 91.6

Enquiry: Give viability for the following compound: CCOC(=O)Cn1c(=O)oc2cc(S(=O)(=O)N3CCN(c4ccccn4)CC3)ccc21
Return: 99.5

---

- ASSAY_REMARKS: growth suppression of beta-catenin knockout HCT116, pilot screen, human colon tumor cells (AID 823);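 further: 0% = wells killed by 20 µM Hyamine and 100% = untreated DMSO cell wells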
- PARTICULARS: CellTiter-Glo, 60 h, at 10 µM, stronger effect = lower value
Records with an inconclusive call do not appear.
Exercise: for every item that follows, state its recorded viability.
Numeric answer only, unit % assumed.

Enquiry: Give viability for the following compound: CCOCCCNC(=O)C(c1ccc(Cl)cc1)N1CCN(c2ccccc2)CC1 (configuration not stated)
Return: 87

Enquiry: Give viability for the following compound: CCOC(=O)N1CCC(N2CC34C=CC(O3)C(C(=O)Nc3ccc(OCC)cc3)C4C2=O)CC1 (configuration not stated)
Return: 108

Enquiry: Give viability for the following compound: COc1ccc(S(=O)(=O)Cc2ccc(C(=O)NCc3ccc(F)cc3)o2)cc1
Return: 92.2

Enquiry: Give viability for the following compound: CCOC(=O)COc1ccc2cc(C(=O)OCC)c(=O)oc2c1
Return: 103

Enquiry: Give viability for the following compound: Cn1nc(-c2ccc(Cl)cc2)c2cc(C(=O)N3CCN(c4ccccc4)CC3)sc21
Return: 71.2

Enquiry: Give viability for the following compound: O=C1c2oc3ccccc3c(=O)c2C(c2cccc(O)c2)N1CCCN1CCOCC1 (configuration not stated)
Return: 102

Enquiry: Give viability for the following compound: CC(C)Oc1ccc(C2CNC(=O)C2)cc1 (configuration not stated)
Return: 102
